- Tested Target: recombinant human Cathepsin K (Homo sapiens (Human))
- Sequence (P43235 115-329): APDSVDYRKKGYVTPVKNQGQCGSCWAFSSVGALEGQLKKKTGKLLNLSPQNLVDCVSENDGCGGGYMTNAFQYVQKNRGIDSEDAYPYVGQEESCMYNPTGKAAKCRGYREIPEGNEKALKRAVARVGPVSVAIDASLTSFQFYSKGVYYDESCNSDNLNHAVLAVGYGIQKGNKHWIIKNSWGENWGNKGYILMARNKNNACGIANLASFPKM
- Method Summary: Inhibition of human Cathepsin K
- Condition Set: substrate Z-Gly-Pro-Arg-AMC
- Protocol: Inhibition of Human Cathepsin K […] 5 μL test compound (final concentration 0.1 nM to 100 μM) in aqua bidest (containing 4% DMSO, final DMSO concentration 1%) were mixed with 10 uL of Cathepsin K in assay buffer (final concentration 2 ng/μL) and incubated for 10 min. […] The fluorescence in the wells was determined using a Molecular Devices SpectraMax M5 Fluorescence Reader (Ex 360 nm, Em 460 nm). […]
IC50 vs 9 µM: less than gives rule met; not less than gives rule not met.

**Query** Does the reported IC50 of "N#C[C@H](Cc1ccc2c(c1)c(=O)[nH]c1cc(C(F)(F)F)ccc12)NC(=O)[C@H]1N[C@@H]2CC[C@H]1C2" stay below 9 µM?
**Result** rule not met

**Query** # TODO verify IC50 < 9 µM strictly for this compound: "CS(=O)(=O)c1ccc(-c2ccc(C[C@@H](C#N)NC(=O)[C@H]3N[C@@H]4CC[C@H]3C4)c(F)c2)c(F)c1"
**Result** rule met

**Query** Could you please tell me whether IC50 recorded for "CC(=O)c1cn(-c2ccc(C[C@@H](C#N)NC(=O)[C@H]3N[C@@H]4CC[C@H]3C4)c(F)c2)nn1" is less than 9 µM?
**Result** rule met

**Query** Strictly below 9 µM: is that where IC50 of Cc1c(-c2ccc(C[C@@H](C#N)NC(=O)[C@H]3N[C@@H]4CC[C@H]3C4)c(F)c2)cnn1C [Example 65] sits?
**Result** rule not met

**Query** Dear colleague, could you confirm whether IC50 of "N#C[C@H](Cc1ccc(-n2cc(C3CC3)nn2)cc1F)NC(=O)[C@H]1N[C@@H]2CC[C@H]1C2" falls below 9 µM? Thanks.
**Result** rule met

**Query** Given "N#C[C@H](Cc1ccc(-n2cc(COc3ccccc3)nn2)cc1F)NC(=O)[C@H]1N[C@@H]2CC[C@H]1C2" , is recorded IC50 strictly lower than 9 µM?
**Result** rule met
